meta.source: ChEMBL document CHEMBL1123419

The entries below come with measured EC50 values attached.
- Tested on: Poliovirus 1
- PROTOCOL_DETAILS: microbe, parasite or virus in culture
- Type: functional
- TEST_CONDITIONS: Enterovirus C; read-out: ED50 (the source's name)
Number only, in µg/mL; omit the unit.

Need EC50, item CN(C)S(=O)(=O)Nc1cccc(/C(=N/O)c2ccc(Cl)cc2)c1 0.46

Also, O=C(Nc1ccccc1)c1cccc(NS(=O)(=O)N2CCCCC2)c1 please. 11

One more compound: CN(C)S(=O)(=O)Nc1cccc(C(=O)Nc2ccc(C#N)cc2)c1 5

Now this one: CCCCCc1ccc(NC(=O)c2ccc(NS(=O)(=O)N(C)C)cc2)cc1 0.32

***
// returns reported EC50 for input CN(C)S(=O)(=O)Nc1ccc(C(=O)Nc2ccc(C(C)(C)C)cc2)cc1 0.12

Another compound to look at: CN(C)S(=O)(=O)Nc1cccc(C(=O)Nc2ccc(Br)cc2)c1 1.7

Try this compound too: CN(C)S(=O)(=O)Nc1cccc(C(=O)NC2CCCCC2)c1 28

Query CN(C)S(=O)(=O)Nc1cccc(C(=O)Nc2ccccc2)c1 next 4

Note, next up: COc1ccc(/C(=N\O)c2cccc(NS(=O)(=O)N3CCCC3)c2)cc1 1.1

Same again, this time with CN(C)S(=O)(=O)Nc1cccc(NC(=O)c2ccccc2)c1 20

// repeat for CN(C)S(=O)(=O)Nc1ccc(C(=O)Nc2ccc(C(F)(F)F)cc2)cc1 and report 0.18

CCc1ccc(NC(=O)c2ccc(NS(=O)(=O)N(C)C)cc2)cc1 , same question. 0.36

* * *

The reader will find reported EC50 values listed item by item below.
- Test system: Poliovirus 1
- PROTOCOL_DETAILS: microbe, parasite or virus in culture
- Format: functional
- TEST_CONDITIONS: Enterovirus C; read-out: ED50 (the source's name)
The reply should be a number in µg/mL, with the unit left off.

Consider the reported EC50 for these compounds:
Please look up its EC50: CN(C)S(=O)(=O)Nc1ccc(C(=O)Nc2ccc(I)cc2)cc1 0.3

Moving on to the next compound: COc1ccc(/C(=N\O)c2cccc(NS(=O)(=O)N(C)C)c2)c(OC)c1 1

// next record CC(C)S(=O)(=O)Nc1cccc(C(=O)Nc2ccc(F)cc2)c1 4.2

Now give it for CC(=O)c1ccccc1NC(=O)c1cccc(NS(=O)(=O)C(C)C)c1 too. 5

Please do the same for CC(C)S(=O)(=O)Nc1cccc(C(=O)Nc2ccc(Cl)cc2)c1 as well. 1.2

Here is the next item to consider.
// query EC50 value for entry Cc1ccc(/C(=N\O)c2cccc(NS(=O)(=O)N(C)C)c2)cc1 0.44

* * *

- System: Poliovirus 1
- PROTOCOL_DETAILS: microbe, parasite or virus in culture
- Format: functional
- TEST_CONDITIONS: Enterovirus C; read-out: ED50 (the source's name)
Form field: EC50 (one value per entry).
Lab book: enter the figure in µg/mL, no units written.

Field: example entries. Status: answers known.
Which EC50 reading was recorded for the compound COc1ccc(/C(=N/O)c2cccc(NS(=O)(=O)N(C)C)c2)cc1 ? 7.6

What would you report for CC(C)Cc1ccc(NC(=O)c2ccc(NS(=O)(=O)N(C)C)cc2)cc1 ? 0.16

Could you do the same for CCCOc1ccc(NC(=O)c2ccc(NS(=O)(=O)N(C)C)cc2)cc1 , please? 0.7

Follow-up item: COc1ccc(/C(=N\O)c2cccc(NS(=O)(=O)N(C)C)c2)cc1OC 0.55

Others:
May I ask what EC50 has been recorded for CC(C)S(=O)(=O)Nc1cccc(C(=O)Nc2nccs2)c1 ? 25

Then CN(C)S(=O)(=O)Nc1ccc(C(=O)Nc2ccc(Cl)cc2)cc1 ? 0.5

Input CN(C)S(=O)(=O)Nc1ccc(C(=O)Nc2cccc(Br)c2)cc1 5

Quick one: CN(C)S(=O)(=O)Nc1cccc(/C(=N/O)c2ccccc2)c1 0.79

And what about the compound CCOc1ccc(/C(=N\O)c2cccc(NS(=O)(=O)N(C)C)c2)cc1 ? 5.5

* * *

- Tested on: Poliovirus 1
- PROTOCOL_DETAILS: microbe, parasite or virus in culture
- Format: functional
- TEST_CONDITIONS: Enterovirus C; read-out: ED50 (the source's name)
READOUT_TYPE: EC50

Guide cases for EC50, answers given:
Give recorded EC50 with Poliovirus 1 for the following molecule: CC(C)S(=O)(=O)n1c(N)nc2ccc(/C(=N/O)c3ccccc3)cc21 [ENVIROXIME] 0.032 µg/mL

Also CC(C)S(=O)(=O)Nc1cccc(C(=O)Nc2cccc([N+](=O)[O-])c2)c1 ? > 25 µg/mL

Next up: CC(C)S(=O)(=O)Nc1cccc(C(=O)Nc2ccc(Br)cc2)c1 0.7 µg/mL

Also COc1cccc(/C(=N\O)c2cccc(NS(=O)(=O)N(C)C)c2)c1 ? 0.34 µg/mL

Kindly review the next molecule as well.
Under Poliovirus 1: EC50 value of CC(C)S(=O)(=O)Nc1cccc(C(=O)Nc2ccccc2)c1 ? 7 µg/mL

* * *

This listing pairs compounds with measured EC50.
- Test system: Poliovirus 1
- PROTOCOL_DETAILS: microbe, parasite or virus in culture
- Format: functional
- TEST_CONDITIONS: Enterovirus C; read-out: ED50 (the source's name)

Study these solved cases before continuing.
What does the data say about its EC50? Entry: CN(C)S(=O)(=O)Nc1ccc(Cl)c(C(=O)Nc2ccc(Cl)cc2)c1 > 50 µg/mL

Also CC(C)S(=O)(=O)Nc1cccc(C(=O)Nc2cccc(CO)c2)c1 , if possible. > 50 µg/mL

Turning now to a further compound:
// returns reported EC50 for input CC(C)S(=O)(=O)Nc1cccc(C(=O)Nc2ccc(Cl)c(Cl)c2)c1 > 25 µg/mL

* * *

- Test system: Poliovirus 1
- PROTOCOL_DETAILS: microbe, parasite or virus in culture
- Assay type: functional
- TEST_CONDITIONS: Enterovirus C; read-out: ED50 (the source's name)
Lab note - cut at 0.5 mg/L for EC50: rule met if strictly below, rule not met if not.

Is 0.5 mg/L strictly greater than the compound's reported EC50? compound: CC(C)S(=O)(=O)Nc1cccc(C(=O)NCc2ccco2)c1 rule not met

Field entry: CN(C(=O)c1ccc(NS(=O)(=O)N(C)C)cc1)c1ccc(Cl)cc1 rule not met

Same again, this time with CN(C)S(=O)(=O)Nc1cccc(C(=O)Nc2ccc(C(F)(F)F)cc2)c1 rule met

Others:
Record CCCCc1ccc(NC(=O)c2ccc(NS(=O)(=O)C(C)C)cc2)cc1 : is its EC50 strictly below 0.5 mg/L? rule met

Repeat for the following compound: CN(C)S(=O)(=O)Nc1ccc(C(=O)Nc2ccccc2Cl)cc1 rule not met

Next entry: Cc1ccc(NC(=O)c2ccc(NS(=O)(=O)N(C)C)cc2)cc1 rule not met

And CN(C)S(=O)(=O)Nc1cccc(/C(=N/O)c2ccc(CO)cc2)c1 ? rule met

// next record COC(=O)c1ccc(NC(=O)c2cccc(NS(=O)(=O)C(C)C)c2)cc1 rule not met

* * *

- Test system: Poliovirus 1
- PROTOCOL_DETAILS: microbe, parasite or virus in culture
- Assay type: functional
- TEST_CONDITIONS: Enterovirus C; read-out: ED50 (the source's name)
Label t when EC50 is strictly below 2 µg/mL; at or above that, label f.

Check if EC50 falls below 2 µg/mL for CN(C)S(=O)(=O)Nc1cc(C(=O)Nc2ccccc2)ccc1Cl . f

Cool, now CN(C)S(=O)(=O)Nc1ccc(C(=O)NCCCCc2ccccc2)cc1 t

Lookup COCc1ccc(/C(=N\O)c2cccc(NS(=O)(=O)N(C)C)c2)cc1 t

Can you check CC(C)S(=O)(=O)Nc1cccc(C(=O)Nc2cccc(Cl)c2)c1 next? t

Then what about the compound CC(C)S(=O)(=O)n1c(N)nc2ccc(/C(=N\O)c3ccccc3)cc21 ? t

* * *

In this section, each of the molecules is paired with its reported EC50.
- System: Poliovirus 1
- PROTOCOL_DETAILS: microbe, parasite or virus in culture
- Format: functional
- TEST_CONDITIONS: Enterovirus C; read-out: ED50 (the source's name)

Look at this molecule and give its reported EC50. COc1ccc(/C(=N/O)c2cccc(NS(=O)(=O)N(C)C)c2)c(OC)c1 19.5 µg/mL

Others:
// lookup EC50 for CC(C)S(=O)(=O)Nc1cccc(C(=O)Nc2ccccc2C(F)(F)F)c1 0.6 µg/mL

CS(=O)(=O)Nc1cccc(C(=O)Nc2ccccc2)c1 , same question. > 50 µg/mL

Again, but for CN(C)S(=O)(=O)Nc1ccccc1C(=O)Nc1ccccc1 25 µg/mL

Another: CC(C)c1ccc(NC(=O)c2ccc(NS(=O)(=O)N(C)C)cc2)cc1 0.21 µg/mL

Moving on to the next molecule: Cc1ccc(NS(=O)(=O)C(C)C)cc1C(=O)Nc1ccc(Cl)cc1 12 µg/mL

What would you report for Cc1cccc(NC(=O)c2ccc(NS(=O)(=O)N(C)C)cc2)c1 ? 2.3 µg/mL
